B1: tRNA (parent)
chain: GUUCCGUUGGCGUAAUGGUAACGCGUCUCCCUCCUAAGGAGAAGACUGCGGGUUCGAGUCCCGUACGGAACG

Variants of: B1
Assay: yeast fitness, log relative to wild type (ln ratio); higher = fitter; tRNA-Arg(CCU), competitive growth, 37 C, 1 M NaCl
Kindly return 1 if reported yeast fitness (ln) is no lower than -0.2; return 0 if it is lower.

Answered cases to consult:
{"columns": ["CONSTRUCT_SEQUENCE", "DISCRETE_LABEL"],
 "data": [
  ["GUUCCGUUGGCGUAAUGGUAACGCGUUUCCCUCCUAAGGAGAAGACUGCGGGUUCGAGUCCCGUACGGGUUG", 0],
  ["AGUCCAUUGGCGUAAUGGUAACGCGUCUCCCUCCUAAGGAGAAGACUGCGGGUUCGAGUCCCGUACGGAAUG", 1]
]}

-- ask Answer whether yeast fitness (ln) of "AGUCCAUUGGCGUAAUGGUAACGCGUUUCCCUCCUAAGGAGACGACUGCGGGUUCGAGUCCCGUACGGGGCG" is greater than or equal to -0.2.
-- reply 0

-- ask Quick check, yeast fitness (ln) >= -0.2? "AUUCCUUUGGCGUAAUGGUAACGCGUCUCCCUCCUAAGGAGAAGAUUGCGGGUUCGAGUCCCGUACGGGAUG"
-- reply 0

-- ask Please indicate if the recorded yeast fitness (ln) for "AUUCCGUUGGCGUAAUGGUAACGCGUUUCCCUCCUAAGGAGACGACUGCGGGUUCGAGUCCCGUACGGAUCG" meets or exceeds -0.2.
-- reply 0

-- ask Item "GUUCCUUUGGCGUAAUGGUAACGCGUCUCCCUCCUAAGGAGACGACUGCGGGUUCGAGUCCCGUAUGGGUUG" with yeast fitness (ln) of -0.2 or above?
-- reply 0

-- ask Decide: is the reported value of yeast fitness (ln) for "GCUCCGUUGGCGUAAUGGUAACGCGUCUCCCUCCUAAGGAGACGACUGCGGGUUCGAGUCCCGUACGGAUCG" equal to or greater than -0.2?
-- reply 1

-- ask Exam item: decide whether the reported yeast fitness (ln) for "GCUCCUUUGGCGUAAUGGUAACGCGUCUCCCUCCUAAGGAGACGACUGCGGGUUCGAGUCCCGUAAGGAUCG" is at least -0.2.
-- reply 1

-- ask Assess whether reported yeast fitness (ln) for "AUUCCGUUGGCGUAAUGGUAACGCGUCUCCCUCCUAAGGAGACGACUGCGGGUUCGAGUCCCGUAUGGAACG" sits at -0.2 or higher.
-- reply 1

-- ask Is reported yeast fitness (ln) greater than or equal to -0.2 here: "AUUCCUUUGGCGUAAUGGUAACGCGUCUCCCUCCUAAGGAGAAGAUUGCGGGUUCGAGUCCCGUAUGGGUCG"
-- reply 0
